Biological target: MET D1228N (Homo sapiens, UniProt P08581, D1228N)
Construct: purchased Signalchem M52-12IG
Sequence (P08581 25-1390 D1228N): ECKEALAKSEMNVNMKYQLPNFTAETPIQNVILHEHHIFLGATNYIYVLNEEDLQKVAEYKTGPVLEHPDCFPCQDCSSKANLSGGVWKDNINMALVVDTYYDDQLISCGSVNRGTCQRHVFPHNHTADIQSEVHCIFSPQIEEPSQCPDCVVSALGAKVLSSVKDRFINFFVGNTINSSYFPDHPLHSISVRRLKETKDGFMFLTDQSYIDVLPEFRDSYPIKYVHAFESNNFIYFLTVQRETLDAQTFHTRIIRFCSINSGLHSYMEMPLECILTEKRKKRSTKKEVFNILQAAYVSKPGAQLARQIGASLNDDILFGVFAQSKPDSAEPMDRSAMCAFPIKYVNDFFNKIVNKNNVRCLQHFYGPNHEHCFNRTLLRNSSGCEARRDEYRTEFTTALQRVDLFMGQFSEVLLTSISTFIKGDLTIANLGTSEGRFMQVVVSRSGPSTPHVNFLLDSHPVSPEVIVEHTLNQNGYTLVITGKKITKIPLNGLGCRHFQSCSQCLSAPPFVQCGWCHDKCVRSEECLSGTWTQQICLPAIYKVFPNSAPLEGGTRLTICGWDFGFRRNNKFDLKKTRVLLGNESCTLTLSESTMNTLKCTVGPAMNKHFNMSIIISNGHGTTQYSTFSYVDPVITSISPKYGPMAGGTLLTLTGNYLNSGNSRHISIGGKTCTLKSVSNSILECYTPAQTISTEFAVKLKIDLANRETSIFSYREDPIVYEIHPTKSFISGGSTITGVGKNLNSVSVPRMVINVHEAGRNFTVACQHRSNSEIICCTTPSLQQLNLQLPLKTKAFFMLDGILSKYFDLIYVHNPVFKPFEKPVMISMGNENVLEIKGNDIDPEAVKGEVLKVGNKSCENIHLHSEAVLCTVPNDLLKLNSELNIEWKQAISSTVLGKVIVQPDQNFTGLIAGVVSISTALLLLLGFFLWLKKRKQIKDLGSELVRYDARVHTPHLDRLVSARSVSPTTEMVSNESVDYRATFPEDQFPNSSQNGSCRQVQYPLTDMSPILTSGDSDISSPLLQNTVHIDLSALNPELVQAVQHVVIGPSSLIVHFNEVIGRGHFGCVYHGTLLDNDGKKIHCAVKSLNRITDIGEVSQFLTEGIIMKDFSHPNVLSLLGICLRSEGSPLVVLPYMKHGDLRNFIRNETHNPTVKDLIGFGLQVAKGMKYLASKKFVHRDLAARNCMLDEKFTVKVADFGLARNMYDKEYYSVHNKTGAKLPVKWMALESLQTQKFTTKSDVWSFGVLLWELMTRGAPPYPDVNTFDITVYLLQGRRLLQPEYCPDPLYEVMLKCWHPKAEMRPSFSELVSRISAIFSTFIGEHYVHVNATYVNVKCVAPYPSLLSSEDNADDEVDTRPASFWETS
Test: Kinase inhibition experiment (HTRF KinEASE-TK kit), mutant MET D1228N
Assay type: biochemical
Details: 10 concentrations, 3-fold dilution
measured_attribute: IC50 (nM)
A number alone suffices; assume nM.

Kindly note: MET D1228N (Homo sapiens, UniProt P08581, D1228N), C[C@@H](CO)Nc1n[nH]c2nccc(Oc3ccc(NC(=O)c4cccc(-c5ccc(F)cc5)[n+]4[O-])cc3F)c12 [Final product 3] , IC50 value reported: 13.1

Entry CC(C)(O)CNc1n[nH]c2nccc(Oc3ccc(NC(=O)c4cccc(-c5ccc(F)cc5)[n+]4[O-])cc3F)c12 [Final product 10] ; assay system MET D1228N (Homo sapiens, UniProt P08581, D1228N); IC50 recorded at 13.6

Kindly note: MET D1228N (Homo sapiens, UniProt P08581, D1228N), O=C(Nc1ccc(Oc2ccnc3[nH]nc(N4CCO[C@H](CO)C4)c23)c(F)c1)c1cccc(-c2ccc(F)cc2)[n+]1[O-] [Final product 35] , IC50 value reported: 14.7

* * *

Target: wild type (WT) MET kinase (Homo sapiens)
Construct: purchased Carna 08-151
Sequence (P08581 25-1390): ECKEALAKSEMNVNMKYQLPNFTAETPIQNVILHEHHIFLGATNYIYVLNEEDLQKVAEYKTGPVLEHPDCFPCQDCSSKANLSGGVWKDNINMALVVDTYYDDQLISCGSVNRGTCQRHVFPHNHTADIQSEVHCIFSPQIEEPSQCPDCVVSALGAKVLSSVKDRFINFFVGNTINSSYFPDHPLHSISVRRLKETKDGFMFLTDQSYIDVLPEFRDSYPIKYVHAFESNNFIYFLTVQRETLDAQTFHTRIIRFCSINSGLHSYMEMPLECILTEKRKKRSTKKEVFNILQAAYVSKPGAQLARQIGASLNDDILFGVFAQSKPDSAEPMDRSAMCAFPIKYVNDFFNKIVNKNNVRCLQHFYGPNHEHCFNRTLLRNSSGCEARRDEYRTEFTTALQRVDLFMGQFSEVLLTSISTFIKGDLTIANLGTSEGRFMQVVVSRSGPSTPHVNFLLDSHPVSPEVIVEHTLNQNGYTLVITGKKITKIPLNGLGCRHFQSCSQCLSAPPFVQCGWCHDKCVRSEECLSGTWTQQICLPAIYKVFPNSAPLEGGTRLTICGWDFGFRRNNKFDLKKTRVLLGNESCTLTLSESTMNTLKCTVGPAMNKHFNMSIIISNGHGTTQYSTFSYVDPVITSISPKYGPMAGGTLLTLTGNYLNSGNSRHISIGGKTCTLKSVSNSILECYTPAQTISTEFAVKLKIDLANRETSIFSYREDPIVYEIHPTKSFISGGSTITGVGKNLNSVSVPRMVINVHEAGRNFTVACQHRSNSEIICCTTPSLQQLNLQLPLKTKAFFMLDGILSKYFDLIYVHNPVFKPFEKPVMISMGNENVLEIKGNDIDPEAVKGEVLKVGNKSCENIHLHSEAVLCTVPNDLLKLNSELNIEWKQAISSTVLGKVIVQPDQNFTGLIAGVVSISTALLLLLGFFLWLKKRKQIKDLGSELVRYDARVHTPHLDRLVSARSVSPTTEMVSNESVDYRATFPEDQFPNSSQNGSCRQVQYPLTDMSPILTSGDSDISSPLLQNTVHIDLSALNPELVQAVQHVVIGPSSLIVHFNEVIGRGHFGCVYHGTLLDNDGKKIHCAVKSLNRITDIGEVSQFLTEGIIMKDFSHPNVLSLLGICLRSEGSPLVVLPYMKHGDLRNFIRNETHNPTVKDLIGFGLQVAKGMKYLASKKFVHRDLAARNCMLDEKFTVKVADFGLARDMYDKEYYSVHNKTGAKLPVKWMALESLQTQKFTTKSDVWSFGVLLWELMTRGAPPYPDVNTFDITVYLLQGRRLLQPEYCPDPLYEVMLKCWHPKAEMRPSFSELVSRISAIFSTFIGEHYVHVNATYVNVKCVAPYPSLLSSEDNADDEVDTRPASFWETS
Assay: Kinase inhibition experiment (HTRF KinEASE-TK kit), wild-type MET
Type: biochemical
Details: 10 concentrations, 3-fold dilution
measured_attribute: IC50
Field: value (include unit after the number)

For the compound `C[C@H](CO)Nc1n[nH]c2nccc(Oc3ccc(NC(=O)c4ccc(F)c(-c5ccc(F)cc5)[n+]4[O-])cc3F)c12` , the measured IC50 on wild type (WT) MET kinase (Homo sapiens) was 2 nM

Noted IC50 for `Cc1ccc(C(=O)Nc2ccc(Oc3ccnc4[nH]nc(NCC5(O)CC5)c34)c(F)c2)[n+]([O-])c1-c1ccc(F)cc1` , tested on wild type (WT) MET kinase (Homo sapiens): 6.9 nM

Record `C[C@@H](CO)Nc1n[nH]c2nccc(Oc3ccc(NC(=O)c4cccc(-c5ccc(F)cc5)[n+]4[O-])cc3F)c12` / wild type (WT) MET kinase (Homo sapiens), IC50 recorded as 4.3 nM

Field IC50 (wild type (WT) MET kinase (Homo sapiens)), entry `CC[C@@H](CO)Nc1n[nH]c2nccc(Oc3ccc(NC(=O)c4ccc(Cl)c(-c5ccc(F)cc5)[n+]4[O-])cc3F)c12` : 12.7 nM

The reported wild type (WT) MET kinase (Homo sapiens) IC50 of `C[C@H](CO)Nc1n[nH]c2nccc(Oc3ccc(NC(=O)c4cccc(-c5ccc(Cl)cc5)[n+]4[O-])cc3Cl)c12` is 4.6 nM

Here `CSc1ccc(C(=O)Nc2ccc(Oc3ccnc4[nH]nc(N[C@H](C)CO)c34)c(F)c2)[n+]([O-])c1-c1ccc(F)cc1` was tested on wild type (WT) MET kinase (Homo sapiens), and its IC50 came to 6.4 nM

Noted IC50 for CC(O)C1CCN(c2n[nH]c3nccc(Oc4ccc(NC(=O)c5cccc(-c6ccc(F)cc6)[n+]5[O-])cc4F)c23)CC1 (stereo not drawn) , tested on wild type (WT) MET kinase (Homo sapiens): 3 nM

The compound `C[C@H](CO)Nc1n[nH]c2nccc(Oc3ccc(NC(=O)c4cc(C5CC5)cc(-c5ccc(F)cc5)[n+]4[O-])cc3F)c12` on wild type (WT) MET kinase (Homo sapiens): IC50 was 12.1 nM

Value sought: IC50, system wild type (WT) MET kinase (Homo sapiens), item `O=C(Nc1ccc(Oc2ccnc3[nH]nc(N[C@H]4COC[C@@H]4O)c23)c(Cl)c1)c1ccc(Cl)c(-c2ccc(F)cc2)[n+]1[O-]` . Result: 1 nM

Case `O=C(Nc1ccc(Oc2ccnc3[nH]nc(N4CCC(F)(CO)CC4)c23)c(F)c1)c1cccc(-c2ccc(F)cc2)[n+]1[O-]` , wild type (WT) MET kinase (Homo sapiens), IC50 recorded as 1.7 nM

Simply: `C[C@H](CO)Nc1n[nH]c2nccc(Oc3ccc(NC(=O)c4ccc(OCC(F)(F)F)c(-c5ccc(F)cc5)[n+]4[O-])cc3Cl)c12` , wild type (WT) MET kinase (Homo sapiens), IC50 = 18 nM

Measured on wild type (WT) MET kinase (Homo sapiens), CC(O)CNc1n[nH]c2nccc(Oc3ccc(NC(=O)c4cccc(-c5ccc(F)cc5)[n+]4[O-])cc3F)c12 (stereo not drawn) has a documented IC50 of 4.6 nM
